Entry source: ChEMBL document CHEMBL3580540

Below: a set of entries, each annotated with reported pKi.
Assay: Displacement of 2-[125I]-iodomelatonin from human MT2 receptor expressed in CHO cells by Gamma counting
Type: cell-based
propertyName: pKi

[[record]]
smilestext = "COc1ccc2c(c1)c(CCNC(C)=O)cn2CC(=O)NCCCCCCCCCCCNC(=O)Cn1cc(CCNC(C)=O)c2cc(OC)ccc21"
propertyname = "pKi"
reportedresult = 6.53

[[record]]
smilestext = "COc1ccc2c(c1)c(CCNC(C)=O)cn2CCCCC(=O)NCCCCCCCCCCNC(=O)CCCCn1cc(CCNC(C)=O)c2cc(OC)ccc21"
propertyname = "pKi"
reportedresult = 6.62

[[record]]
smilestext = "CCCCCCNC(=O)CCCCn1cc(CCNC(C)=O)c2cc(OC)ccc21"
propertyname = "pKi"
reportedresult = 6.41

[[record]]
smilestext = "COc1ccc2c(c1)c(CCNC(C)=O)cn2CCCCC(=O)NCCCCCCCCCCCNC(=O)CCCCn1cc(CCNC(C)=O)c2cc(OC)ccc21"
propertyname = "pKi"
reportedresult = 6.54

[[record]]
smilestext = "COc1ccc2c(c1)c(CCNC(C)=O)cn2CCCCC(=O)NCCCCCCCNC(=O)CCCCn1cc(CCNC(C)=O)c2cc(OC)ccc21"
propertyname = "pKi"
reportedresult = 5.93

[[record]]
smilestext = "COc1ccc2c(c1)c(CCNC(C)=O)cn2CCCCC(=O)NCCCCCCCCCCCCNC(=O)CCCCn1cc(CCNC(C)=O)c2cc(OC)ccc21"
propertyname = "pKi"
reportedresult = 6.67

[[record]]
smilestext = "COc1ccc2c(c1)c(CCNC(C)=O)cn2CCCCC(=O)NCCCCCCCCCNC(=O)CCCCn1cc(CCNC(C)=O)c2cc(OC)ccc21"
propertyname = "pKi"
reportedresult = 6.79

[[record]]
smilestext = "COc1ccc2c(c1)c(CCNC(C)=O)cn2CCCCC(=O)NCCCCCCCCNC(=O)CCCCn1cc(CCNC(C)=O)c2cc(OC)ccc21"
propertyname = "pKi"
reportedresult = 6.74

[[record]]
smilestext = "COc1ccc2c(c1)c(CCNC(C)=O)cn2CC(=O)NCCCCCCCCCNC(=O)Cn1cc(CCNC(C)=O)c2cc(OC)ccc21"
propertyname = "pKi"
reportedresult = 4.93

[[record]]
smilestext = "COc1ccc2c(c1)c(CCNC(C)=O)cn2CC(=O)NCCCCCCCCCCNC(=O)Cn1cc(CCNC(C)=O)c2cc(OC)ccc21"
propertyname = "pKi"
reportedresult = 7.34

[[record]]
smilestext = "COc1ccc2c(c1)c(CCNC(C)=O)cn2CC(=O)NCCCCCCCCCCCCNC(=O)Cn1cc(CCNC(C)=O)c2cc(OC)ccc21"
propertyname = "pKi"
reportedresult = 7.02

[[record]]
smilestext = "COc1ccc2c(c1)c(CCNC(C)=O)cn2CCCCC(=O)NCCCCCCNC(=O)CCCCn1cc(CCNC(C)=O)c2cc(OC)ccc21"
propertyname = "pKi"
reportedresult = 5.9

